- System: CD2F1 mice, P1798 lymphosarcoma sc, tumor weight T/C
- assayMethodText: NCI In Vivo Anticancer Drug Screen. Data for tumor model P1798 Lymphosarcoma (subcutaneous) in CD2F1 (CDF1) mice
- protocolConditions: endpoint: mean tumor weight; dose: 50.0 mg/kg/injection; schedule: Q01DX010 (ip); vehicle: saline; higher = larger tumour
reportedEndpoint: T/C

Some solved cases for reference:
CC(=O)NCCCCCCNCCCCCCNC(C)=O | 99 % of control
NC(=O)n1cccn1 | 75 % of control
NCCCC(N)C(=O)NCCCCCCCCCCNC(=O)C(N)CCCN (centres undefined) | 65 % of control
CO[C@@H]1[C@@H](OC2OC(C)C(OC3CC(C)(O)C(OC(=O)CC(C)C)C(C)O3)C(N(C)C)C2O)[C@@H](CC=O)C[C@@H](C)C(=O)/C=C/C2O[C@H]2C[C@@H](C)OC(=O)C[C@H]1OC(C)=O (some centres undefined) | 89 % of control
CS(=O)(=O)OCCC(=O)N1CCN(C(=O)CCOS(C)(=O)=O)CC1 | 7 % of control
O=C(NCCCCC(NC(=O)c1ccccc1)C(=O)NCCCCCCCCCCNC(=O)C(CCCCNC(=O)c1ccccc1)NC(=O)c1ccccc1)c1ccccc1 (centres undefined) | 86 % of control

Please tell me the measured T/C for "CN(C)/N=N/c1nc[nH]c1C(N)=O" ; system: CD2F1 mice, P1798 lymphosarcoma sc, tumor weight T/C.
58 % of control

Please tell me the measured T/C for "O=C(NCCCCCCNC(=O)OCc1ccccc1)OCc1ccccc1" ; system: CD2F1 mice, P1798 lymphosarcoma sc, tumor weight T/C.
102 % of control

Please tell me the measured T/C for Nc1c(N=Nc2ccc([N+](=O)[O-])cc2)c(S(=O)(=O)O)cc2cc(S(=O)(=O)O)c(N=Nc3ccc(Sc4ccc(N=Nc5ccc(O)cc5)cc4)cc3)c(O)c12 (tested in a mixture with another compound) ; system: CD2F1 mice, P1798 lymphosarcoma sc, tumor weight T/C.
119 % of control

Please tell me the measured T/C for NCCCCC(N)C(=O)NCCCCCCCCCCNC(=O)C(N)CCCCN (centres undefined) ; system: CD2F1 mice, P1798 lymphosarcoma sc, tumor weight T/C.
107 % of control

Please tell me the measured T/C for O=C(NCCCCC(NC(=O)c1ccccc1)C(=O)NCCCCCCNCCCCCCNC(=O)C(CCCCNC(=O)c1ccccc1)NC(=O)c1ccccc1)c1ccccc1 (centres undefined) ; system: CD2F1 mice, P1798 lymphosarcoma sc, tumor weight T/C.
98 % of control

Please tell me the measured T/C for "O=C(CNC(=O)OCc1ccccc1)NCCCCCCNCCCCCCNC(=O)CNC(=O)OCc1ccccc1" ; system: CD2F1 mice, P1798 lymphosarcoma sc, tumor weight T/C.
120 % of control

Please tell me the measured T/C for "CC(=O)NCCCCCCCCCCNC(C)=O" ; system: CD2F1 mice, P1798 lymphosarcoma sc, tumor weight T/C.
96 % of control

Please tell me the measured T/C for "NCC(=O)NCCCCCCNCCCCCCNC(=O)CN" ; system: CD2F1 mice, P1798 lymphosarcoma sc, tumor weight T/C.
82 % of control
